In this section we review reported Neut IC50 subtype A values for a set of binders.
Molecular target: RSV F protein of subtype A (strain A2) on recombinant mKate-RSV (respiratory syncytial virus subtype A …, UniProt P03420 26-574)
Test: cell-based or functional assay

The examples below pair each entry with its known result.
binder | readout | observedMeasurement
ADI-19008 (antibody, V domains shown) VH: EVQLVESGGGVVQPGRSLRLSCVASGFSFSAYGMHWVRQVPTKGLEWVAVISYDGRDIYYTDSVKGRFTISRDNSKNMLYLQMNSLRPEDRAVYYCARDPSLGYNNHYFDYWGQGTLVTVSS VL: EIVLTQSPATLSLSPGETATLSCRASQSVTGNLAWYQQKPGQAPRLLIYAASNRATGIPARFSGSGSGTDFTLTISSLEPEDFAVYFCQQRSNWPPMYSFGQGTKLEIK | Neut IC50 subtype A | 8.29 µg/mL
ADI-18982 (antibody, V domains shown, full-length IgG; also called Antibody Number 330) VH: QVQLVQSGAEVKKPGASVKVSCKASGYIFTSYGVSWVRQAPGQGLKWMGWISGYNGNTNYDQKLQGRVTMTTDTSTSTAYMELRSLTSDDTAVYYCARDSFSETGTGFPDFWGQGTLVTVSS VL: DIQMTQSPLSLPVTLGQPASISCRSSQSLEYSDGNTYLNWFQQRPGQSPRRLIYKVSNRDSGVPDRFSGSGSGTDFTLKISRVEAEDVGVYYCMQATHRPRTFGQGTKLEIK | Neut IC50 subtype A | 0.018 µg/mL

Attention now turns to another entry.
Problem: For the binder ADI-18996 (antibody, V domains shown) VH: QVQLVQSGAEVKRPGASVKVSCKASEYAFTAHYLHWVRQAPDQGLEWMGWISPKSGGTNYAQKFHGRVSMTSDTSISTVYMELSSLTSDDTAVYYCARSSLVGASPNFDFWGQGTLVTVSS VL: QSVVTQPPSVSAAPGQRVTISCSGSSSNIGNNYVSWYQQLPGSTPKVLIYDNNQRPSGIPDRFSGSKSGTSATLAISGLQTGDEAVYYCGTWDASLSAAMVFGGGTKLTVL , give its measured Neut IC50 subtype A value.
Solution: > 10 µg/mL
